All values here come from patent US20230304058A1.

Test system: mRNA
Test: mRNA capping rate by RNase H cleavage and LC-MS
Type: biochemical
Conditions: ratio of capped and uncapped mRNA
Catalogue of mRNA capping rates when using different Cap structures values
READOUT NAME: mRNA capping rates when using different Cap structures (%)

1) CO[C@@H]1[C@H](O)[C@@H](COP(=O)(O)O[C@H]2[C@@H](OC)[C@H](n3cnc4c(=O)[nH]c(N)nc43)O[C@@H]2COP(=O)(O)OP(=O)(O)OP(=O)([O-])OC[C@H]2O[C@@H](n3c[n+](C)c4c(=O)[nH]c(N)nc43)[C@H](O)[C@@H]2O)O[C@H]1n1ccc(=O)[nH]c1=O ... 94.82
2) CO[C@@H]1[C@H](O)[C@@H](COP(=O)(O)O[C@H]2[C@@H](OC)[C@H](n3ccc(N)nc3=O)O[C@@H]2COP(=O)(O)OP(=O)(O)OP(=O)([O-])OC[C@H]2O[C@@H](n3c[n+](C)c4c(=O)[nH]c(N)nc43)[C@H](O)[C@@H]2O)O[C@H]1n1ccc(N)nc1=O ... 95.2

====

Catalogue of Intracellular immunogenicity of mRNA when using different Cap structures values
System: TLR3, TLR7, TLR8 and RIG-1
Experiment: Intracellular immunogenicity of capped mRNA by RNA immunoprecipitation and quantitative PCR
Type: cell-based
Conditions: relative to ARCA; Human-derived PBMC cells, 5 μg mRNA, Lipofectamine 2000, 24 h
READOUT NAME: Intracellular immunogenicity of mRNA when using different Cap structures

1. CO[C@@H]1[C@H](O)[C@@H](COP(=O)(O)O[C@H]2[C@@H](OC)[C@H](n3cnc4c(N)ncnc43)O[C@@H]2COP(=O)(O)OP(=O)(O)OP(=O)([O-])OC[C@H]2O[C@@H](n3c[n+](C)c4c(=O)[nH]c(N)nc43)[C@H](O)[C@@H]2O)O[C@H]1n1ccc(N)nc1=O ... 0.4
2. CO[C@@H]1[C@H](O)[C@@H](COP(=O)(O)O[C@H]2[C@@H](OC)[C@H](n3ccc(=O)[nH]c3=O)O[C@@H]2COP(=O)(O)OP(=O)(O)OP(=O)([O-])OC[C@H]2O[C@@H](n3c[n+](C)c4c(=O)[nH]c(N)nc43)[C@H](O)[C@@H]2OC)O[C@H]1n1ccc(=O)[nH]c1=O ... 0.3
3. CO[C@@H]1[C@H](O)[C@@H](COP(=O)(O)O[C@H]2[C@@H](OC)[C@H](n3cnc4c(N)ncnc43)O[C@@H]2COP(=O)(O)OP(=O)(O)OP(=O)([O-])OC[C@H]2O[C@@H](n3c[n+](C)c4c(=O)[nH]c(N)nc43)[C@H](O)[C@@H]2O)O[C@H]1n1cnc2c(=O)[nH]c(N)nc21 ... 0.40
4. CO[C@@H]1[C@H](O)[C@@H](COP(=O)(O)O[C@H]2[C@@H](OC)[C@H](n3cnc4c(=O)[nH]c(N)nc43)O[C@@H]2COP(=O)(O)OP(=O)(O)OP(=O)([O-])OC[C@H]2O[C@@H](n3c[n+](C)c4c(=O)[nH]c(N)nc43)[C@H](O)[C@@H]2O)O[C@H]1n1ccc(=O)[nH]c1=O ... 0.35
5. CO[C@@H]1[C@H](OP(=O)(O)OC[C@H]2O[C@@H](n3cnc4c(=O)[nH]c(N)nc43)[C@H](OC)[C@@H]2O)[C@@H](COP(=O)(O)OP(=O)(O)OP(=O)([O-])OC[C@H]2O[C@@H](n3c[n+](C)c4c(=O)[nH]c(N)nc43)[C@H](O)[C@@H]2O)O[C@H]1n1ccc(=O)[nH]c1=O ... 0.48
6. CO[C@@H]1[C@H](OP(=O)(O)OC[C@H]2O[C@@H](n3cnc4c(=O)[nH]c(N)nc43)[C@H](OC)[C@@H]2O)[C@@H](COP(=O)(O)OP(=O)(O)OP(=O)([O-])OC[C@H]2O[C@@H](n3c[n+](C)c4c(=O)[nH]c(N)nc43)[C@H](O)[C@@H]2O)O[C@H]1n1ccc(N)nc1=O ... 0.28

====

Biological target: T7 Enzyme Mix (Escherichia phage T7, UniProt P00573)
Sequence (P00573 whole entry): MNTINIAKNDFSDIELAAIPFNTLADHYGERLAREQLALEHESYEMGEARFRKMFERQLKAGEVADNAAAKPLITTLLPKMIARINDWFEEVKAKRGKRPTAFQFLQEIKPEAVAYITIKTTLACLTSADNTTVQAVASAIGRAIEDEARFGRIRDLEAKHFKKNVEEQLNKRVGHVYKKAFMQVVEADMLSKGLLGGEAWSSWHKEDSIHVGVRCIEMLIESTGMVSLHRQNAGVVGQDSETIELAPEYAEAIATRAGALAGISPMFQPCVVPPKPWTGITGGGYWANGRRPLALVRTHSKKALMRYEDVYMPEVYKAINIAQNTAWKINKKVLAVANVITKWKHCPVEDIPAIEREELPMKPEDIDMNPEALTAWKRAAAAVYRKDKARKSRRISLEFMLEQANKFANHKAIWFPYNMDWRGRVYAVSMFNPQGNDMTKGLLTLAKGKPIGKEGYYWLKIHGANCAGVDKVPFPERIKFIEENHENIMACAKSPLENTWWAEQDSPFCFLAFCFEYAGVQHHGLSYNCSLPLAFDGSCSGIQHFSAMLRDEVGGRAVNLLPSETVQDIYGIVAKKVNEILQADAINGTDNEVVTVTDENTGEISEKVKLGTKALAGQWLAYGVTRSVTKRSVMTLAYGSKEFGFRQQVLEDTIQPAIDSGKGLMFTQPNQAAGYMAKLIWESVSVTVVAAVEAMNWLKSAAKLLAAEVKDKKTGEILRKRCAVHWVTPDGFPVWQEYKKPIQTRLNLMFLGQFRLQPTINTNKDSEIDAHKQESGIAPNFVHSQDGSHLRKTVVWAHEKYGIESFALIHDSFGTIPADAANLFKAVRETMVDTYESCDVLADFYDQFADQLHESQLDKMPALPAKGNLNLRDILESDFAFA
Test: In vitro transcription mRNA synthesis with cap analog, reaction yield
Assay type: biochemical
Details: per ml transcription reaction system; 37° C. for 6 h; LiCl purification
Description: 1. Before synthesizing mRNA, linearize the plasmid with Notl, digested at […] overnight; 2. Extract with DNA template; React at 37° C. for 6 h. Digest with TURBO DNase for 15 min. 4. Purify the transcription products using LiCl solution and calculate the reaction yields.
READOUT NAME: Mass of final product obtained from 1 ml mRNA synthesis reaction system (mg)

1. CO[C@@H]1[C@H](O)[C@@H](COP(=O)(O)O[C@H]2[C@@H](OC)[C@H](n3cnc4c(N)ncnc43)O[C@@H]2COP(=O)(O)OP(=O)(O)OP(=O)([O-])OC[C@H]2O[C@@H](n3c[n+](C)c4c(=O)[nH]c(N)nc43)[C@H](O)[C@@H]2O)O[C@H]1n1cnc2c(=O)[nH]c(N)nc21 [Cap analog 1, m7G(5′)ppp(5′)(2′OMeA)p(2′OMeG)] ... 4.5

====

Target: T7 Enzyme Mix (Escherichia phage T7)
Assay: In vitro transcription mRNA synthesis with cap analog, reaction yield
Type: biochemical
Settings: per ml transcription reaction system; 37° C. for 6 h; LiCl purification
READOUT NAME: Mass of final product obtained from 1 ml mRNA synthesis reaction system (mg)

1. CO[C@@H]1[C@H](O)[C@@H](COP(=O)(O)O[C@H]2[C@@H](OC)[C@H](n3ccc(N)nc3=O)O[C@@H]2COP(=O)(O)OP(=O)(O)OP(=O)([O-])OC[C@H]2O[C@@H](n3c[n+](C)c4c(=O)[nH]c(N)nc43)[C@H](O)[C@@H]2O)O[C@H]1n1ccc(N)nc1=O ... 4.7
2. CO[C@@H]1[C@H](O)[C@@H](COP(=O)(O)O[C@H]2[C@@H](OC)[C@H](n3cnc4c(N)ncnc43)O[C@@H]2COP(=O)(O)OP(=O)(O)OP(=O)([O-])OC[C@H]2O[C@@H](n3c[n+](C)c4c(=O)[nH]c(N)nc43)[C@H](O)[C@@H]2OC)O[C@H]1n1cnc2c(=O)[nH]c(N)nc21 ... 4.7
3. CO[C@@H]1[C@H](O)[C@@H](COP(=O)(O)O[C@H]2[C@@H](OC)[C@H](n3cnc4c(N)ncnc43)O[C@@H]2COP(=O)(O)OP(=O)(O)OP(=O)([O-])OC[C@H]2O[C@@H](n3c[n+](C)c4c(=O)[nH]c(N)nc43)[C@H](O)[C@@H]2O)O[C@H]1n1cnc2c(N)ncnc21 ... 4.4
4. CO[C@@H]1[C@H](O)[C@@H](COP(=O)(O)O[C@H]2[C@@H](OC)[C@H](n3cnc4c(N)ncnc43)O[C@@H]2COP(=O)(O)OP(=O)(O)OP(=O)([O-])OC[C@H]2O[C@@H](n3c[n+](C)c4c(=O)[nH]c(N)nc43)[C@H](O)[C@@H]2OC)O[C@H]1n1cnc2c(N)ncnc21 ... 4.8

====

Catalogue of Mass of final product obtained from 1 ml mRNA synthesis reaction system values
Biological target: T7 Enzyme Mix (Escherichia phage T7)
Assay: In vitro transcription mRNA synthesis with cap analog, reaction yield
Assay type: biochemical
Conditions: per ml transcription reaction system; 37° C. for 6 h; LiCl purification
READOUT NAME: Mass of final product obtained from 1 ml mRNA synthesis reaction system (mg)

1. CO[C@@H]1[C@H](O)[C@@H](COP(=O)(O)O[C@H]2[C@@H](OC)[C@H](n3cnc4c(N)ncnc43)O[C@@H]2COP(=O)(O)OP(=O)(O)OP(=O)([O-])OC[C@H]2O[C@@H](n3c[n+](C)c4c(=O)[nH]c(N)nc43)[C@H](O)[C@@H]2O)O[C@H]1n1ccc(=O)[nH]c1=O [Cap analog 13, m7G(5′)ppp(5′)(2′OMeA)p(2′OMeU)] ... 5.1
2. CO[C@@H]1[C@H](OP(=O)(O)OC[C@H]2O[C@@H](n3cnc4c(N)ncnc43)[C@H](OC)[C@@H]2O)[C@@H](COP(=O)(O)OP(=O)(O)OP(=O)([O-])OC[C@H]2O[C@@H](n3c[n+](C)c4c(=O)[nH]c(N)nc43)[C@H](O)[C@@H]2OC)O[C@H]1n1ccc(N)nc1=O [Cap analog 23, 3-O-Me-m7G(5′)ppp(5′)(2′OMeC)p(2′OMeA)] ... 4.5
3. CO[C@@H]1[C@H](O)[C@@H](COP(=O)(O)O[C@H]2[C@@H](OC)[C@H](n3cnc4c(N)ncnc43)O[C@@H]2COP(=O)(O)OP(=O)(O)OP(=O)([O-])OC[C@H]2O[C@@H](n3c[n+](C)c4c(=O)[nH]c(N)nc43)[C@H](O)[C@@H]2OC)O[C@H]1n1ccc(=O)[nH]c1=O [Cap analog 29, 3-O-Me-m7G(5′)ppp(5′)(2′OMeA)p(2′OMeU)] ... 5.3
